biological target: UniProt P16050; test: Inhibition of recombinant human 15-lipoxygenase by MBTH-DMAB method
pIC50: −log10 of the molar value.
QUANTITY: pIC50

Example entries begin here.
>>> numeric_readout("CC(C)=CCC/C(C)=C/COc1cc(=O)oc2ccccc12")
4.37
>>> numeric_readout("CC(C)=CCC/C(C)=C/CC/C(C)=C/COc1ccc2oc(=O)ccc2c1")
5.89

[a] CC(C)=CCC/C(C)=C/COc1ccc2oc(=O)ccc2c1
[b] CC(C)=CCC/C(C)=C/CC/C(C)=C/COc1cccc2oc(=O)ccc12
### Prompt Please indicate which entry, a or b , has the lower recorded pIC50 value. Give the label of your selection.
### Response a
(a: 5.17, b: 5.44)

* * *

assay: Inhibition of soybean 15-lipoxygenase by MBTH-DMAB method; design: species or system Glycine max
QUANTITY: IC50 (µM)

Example entries begin here.
>>> numeric_readout("CC(C)=CCC/C(C)=C/CC/C(C)=C/COc1cc2ccccc2oc1=O")
1.7
>>> numeric_readout("CC(C)=CCC/C(C)=C/COc1ccc2ccc(=O)oc2c1")
6.3

[1] CC(C)=CCC/C(C)=C/COc1cc(=O)oc2ccccc12
[2] CC(C)=CCOc1cc(=O)oc2ccccc12
[3] CC(C)=CCC/C(C)=C/COc1cccc2ccc(=O)oc12
### Prompt Put the items in order so that reported IC50 rises from first to last. I'd appreciate it if you listed the labels in the requested order.
### Response 1, 3, 2
(1: 5.6 µM, 3: 8.1 µM, 2: 43.9 µM)

* * *

biological target: Polyunsaturated fatty acid lipoxygenase ALOX15 (Homo sapiens); experiment: Inhibition of recombinant human 15-lipoxygenase by MBTH-DMAB method
Sequence (P16050 whole entry): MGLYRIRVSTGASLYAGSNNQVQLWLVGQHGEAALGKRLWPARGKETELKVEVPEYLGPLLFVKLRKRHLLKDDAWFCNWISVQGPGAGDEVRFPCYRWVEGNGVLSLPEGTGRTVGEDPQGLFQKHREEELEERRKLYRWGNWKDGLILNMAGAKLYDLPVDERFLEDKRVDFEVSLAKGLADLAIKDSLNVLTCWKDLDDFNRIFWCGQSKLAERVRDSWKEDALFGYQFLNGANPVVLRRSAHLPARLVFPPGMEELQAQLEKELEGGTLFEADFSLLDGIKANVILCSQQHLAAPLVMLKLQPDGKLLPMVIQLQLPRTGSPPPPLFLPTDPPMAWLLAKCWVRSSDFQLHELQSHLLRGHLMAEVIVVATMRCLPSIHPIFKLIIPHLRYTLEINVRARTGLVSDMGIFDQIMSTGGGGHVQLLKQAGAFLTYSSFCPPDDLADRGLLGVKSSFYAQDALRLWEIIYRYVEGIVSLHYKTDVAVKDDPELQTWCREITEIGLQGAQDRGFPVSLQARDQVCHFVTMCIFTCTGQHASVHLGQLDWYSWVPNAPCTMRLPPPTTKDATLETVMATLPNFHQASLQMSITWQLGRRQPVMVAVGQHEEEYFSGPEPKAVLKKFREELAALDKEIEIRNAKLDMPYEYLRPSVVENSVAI
pIC50: −log10 of the molar value.
Listing of recorded pIC50 by entry.

>>> result("CC(C)=CCC/C(C)=C/CC/C(C)=C/COc1cc2ccccc2oc1=O")
"< 4.30"
>>> result("CC(C)=CCC/C(C)=C/CC/C(C)=C/COc1ccccc1")
"< 4.30"

Next up:
### Prompt # lookup: pIC50 of CC(C)=CCC/C(C)=C/COc1cc2ccccc2oc1=O
### Response < 4.00

Numbers sourced from ChEMBL document CHEMBL2086242.
